Tested on: MDA-MB-435
assayRemarks: In vitro cytotoxicity against human breast cancer MDA-MB 435 cell line
Type: functional
observable: GI50 (µM)
The answer is to be given in µM; state only the numeric part.

COC(=O)[C@@H]1[C@H](c2cc(OC)c(O)c(OC)c2)c2cc3c(cc2[C@H](O)[C@H]1CO)OCO3; 0.1

Lookup: Param item = `CCCCOC(=O)[C@@H]1[C@H](c2cc(OC)c(OC)c(OC)c2)c2cc3c(cc2[C@H](O)[C@H]1CO)OCO3` ; retrieve measured GI50.
Found: 1.6

Lookup: Okay, and `CCOC(=O)[C@@H]1[C@H](c2cc(OC)c(O)c(OC)c2)c2cc3c(cc2[C@H](O)[C@H]1CO)OCO3` ?
Found: 0.84

Lookup: Do the same for `CCOC(=O)[C@@H]1[C@H](c2cc(OC)c(OC)c(OC)c2)c2cc3c(cc2C(=O)[C@H]1CO)OCO3` please
Found: 1.33
